Tested on: A549
RUN_DESCRIPTION: NCI tumour cell line growth inhibition, 48 h
The source made the active and inactive calls. Rule as the data show it: active = GI50 up to about 1.1 µM and inactive = higher.
Hello, when you answer, please use one of the following outcomes: YES (active), NO (inactive)

Example entries and their recorded answers appear below.
N#C/C(=C\c1cc(OCc2ccccc2)c(OCc2ccccc2)cn1)C(N)=O
NO
C#Cc1cccc(N2C(=O)CCC2=O)c1
NO
O=S(=O)(c1cnccc1N1CCN(CCO)CC1)N1CCCC1
NO
O=C1CN(c2cccc(Cl)c2)C(=O)CN1NCNN1CC(=O)N(c2cccc(Cl)c2)CC1=O
NO

Dear colleague, could you share the recorded outcome for Cc1cc(NC(=O)NC(=O)c2ccccc2NC(=O)C(C)N)ccc1Oc1ncc(Br)cn1 (stereo not drawn) when you have a moment?
YES

Could you check what this test reported for CCOC(=O)C1(Cc2c[nH]c3ccccc23)C(O)CCCN1C(C)=O (stereo not drawn) ?
NO

State the result this test recorded for Cc1ccc2c(c1)SSSSS2 .
NO

* * *

Test system: KM-20L2
RUN_DESCRIPTION: NCI tumour cell line growth inhibition, 48 h
Calls of active or inactive are those of the source. Cut-off read from the data, not from the text of the source: active = GI50 up to about 1.1 µM and inactive = higher.
Classes to choose from: active, inactive

Sample answers from the record:
Cc1ccc(-c2nnc(SCC(=O)O)[nH]2)cc1
inactive
C=C(C)C(=O)/N=C(\N)NC#N
inactive
O=C(CCN1CCCCC1)C(=Cc1ccccc1)C(=O)CCN1CCCCC1
inactive
N=C(N)NS(=O)(=O)c1ccc(NC(=O)c2cccc3c(Nc4ccc(S(=O)(=O)N=C(N)N)cc4)c4ccccc4nc23)cc1
inactive
OCC1OC2c3ccccc3COC2C1OCc1ccccc1 (stereo not given)
inactive

Fill in: this test's call for COc1cc(CNc2cnc3ccc(N)cc3n2)cc(OC)c1OC is ___
inactive

Which result was noted for this compound in the test: CC1=C(C(=O)Nc2ccccc2)C(c2ccccc2)C(C(=O)Nc2ccccc2)=C(C)N1
inactive

Please share the test call associated with C/C1=C\[C@@H](O)C(=O)/C=C/C=C\c2csc(n2)[C@@H](C)NC(=O)C[C@@]2(CC1)[S+]([O-])SC(=O)[C@]2(C)O (stereo not given in full) [LEINAMYCIN] .
active

Returns: the outcome recorded for CN(CCO)/N=N/c1[nH]cnc1C(N)=O in this assay.
inactive

Short answer needed: outcome of this test for N#C/C(=C\c1cc(OCc2ccccc2)c(OCc2ccccc2)cn1)C(N)=O ?
inactive

Identify the outcome logged in this assay for the compound shown: O=C(Cc1nc2ccccc2s1)NC12CC3CC(CC(C3)C1)C2
inactive

// return assay outcome for CN(C)c1ccc(/C=C(/C(=O)O)c2csc(-c3nc(/C(=C\c4ccc(N(C)C)cc4)C(=O)O)cs3)n2)cc1
inactive

Please indicate how the test categorized CCOC(=O)C(=O)Nc1ccc(Cl)cc1C .
inactive

How was Cc1nc2nnnn2c2c1C(=O)Nc1ccccc1N2 classified in this test?
inactive

Outcome? COC(=O)c1nc(NN)cc(O)c1CCCCCc1c(O)nc(NN)nc1C(=O)OC
inactive

Identify the outcome logged in this assay for the compound shown: C#Cc1cccc(N2C(=O)CCC2=O)c1
inactive

Query: recorded result category for N#CCCN(CCC#N)c1ccc(/C=C(/NC(=O)Nc2ccccc2Cl)NC(=O)c2cc([N+](=O)[O-])ccc2Cl)cc1 in this test
inactive

Look up the recorded call for CCCCCCCCCCCCC(Br)C(=O)SCCNC(=O)CCNC(=O)[C@@H](O)C(C)(C)COP(=O)(O)OP(=O)(O)OCC1OC(n2cnc3c(N)ncnc32)C(O)C1OP(=O)(O)O (stereo not given in full) in this test.
inactive

What is the recorded call for this compound in the test? O=c1/c(=C/c2ccccc2[N+](=O)[O-])sc2nnc(-c3cccnc3)n12
inactive

Hello, I am checking results. What call was entered for CCCCCCCCCCCCSC(=S)c1c(C)[nH]n(-c2ccccc2)c1=O ?
inactive

Recorded values, source ChEMBL document CHEMBL1201862.
